Recorded Ki values for a group of compounds are listed next.
Biological target: human CXCR3 (N-delta 4) (Homo sapiens, UniProt P49682)
Construct: CD8 leader; Flag tag; expressed in transfected cells; membrane preparation
Sequence (P49682 5-368 limits assumed): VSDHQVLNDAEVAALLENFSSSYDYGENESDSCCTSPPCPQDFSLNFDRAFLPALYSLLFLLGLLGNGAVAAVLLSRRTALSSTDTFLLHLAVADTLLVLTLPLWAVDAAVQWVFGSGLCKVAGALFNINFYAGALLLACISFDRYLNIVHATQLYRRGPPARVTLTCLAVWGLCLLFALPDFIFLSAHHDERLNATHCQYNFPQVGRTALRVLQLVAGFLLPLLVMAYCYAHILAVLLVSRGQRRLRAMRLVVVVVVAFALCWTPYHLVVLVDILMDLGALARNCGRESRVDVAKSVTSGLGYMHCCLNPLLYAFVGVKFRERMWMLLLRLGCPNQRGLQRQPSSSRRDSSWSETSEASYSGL
Experiment: Human CXCR3 (N-delta 4) scintillation proximity binding assay ([125I] IP-10 displacement)
Conditions: human CXCR3; Table 1; read-out: Ki rating
Excerpt: The inventive compounds can readily be evaluated to determine activity at The CXCR3 receptors by known methods, such as, for example, Development of Human CXCR3 (N-delta 4) Binding Assay. Cloning and Expression of Human CXCR3 (N-Delta 4): The DNA encoding human CXCR3 was cloned by PCR using human genomic DNA (Promega, Madison, Wis.) as a template. […]

Examples from the recorded data:
COMPOUND	READOUT VALUE
CC[C@H]1CN(c2ccc(-c3nnc(N)o3)nc2C)CCN1C1CCN(C(=O)c2ccc(Cl)cc2)CC1 [Compound 15]	< 25 nM
CC[C@H]1CN(c2ccc(-c3nnc(N)o3)nc2C)CCN1C1CCN(C(=O)c2ccc(Cl)c(F)c2)CC1 [Compound 7]	< 25 nM
CC[C@H]1CN(c2ccc(-c3nnc(N)o3)nc2C)[C@H](C)CN1C1CCN(C(=O)c2ccc(Cl)c(F)c2)CC1 [Compound 13]	25 to 100 nM
CCNc1nnc(-c2ccc(N3CCN(C4CCN(C(=O)c5ccc(Cl)c(F)c5)CC4)[C@@H](CC)C3)c(C)n2)o1 [Compound 5]	< 25 nM
CCNc1nnc(-c2ccc(N3CCN(C4CCN(Cc5ccc(Cl)cc5)CC4)[C@@H](CC)C3)c(C)n2)o1 [Compound 1]	< 25 nM
CCNc1nnc(-c2ccc(N3CCN(C4CCN(C(=O)c5ccc(Cl)cc5)CC4)[C@@H](CC)C3)c(C)n2)o1 [Compound 4]	< 25 nM

Kindly review the next compound as well.
-- ask Would you mind telling me what Ki value was observed for CC[C@H]1CN(c2ccc(-c3nnc(N)o3)nc2C)CCN1C1CCN(Cc2ccc(OC(F)(F)F)cc2)CC1 [Compound 3] ?
-- reply < 25 nM

###

In this section we review reported pKi values for a set of compounds.
Molecular target: human CXCR3 (N-delta 4) (Homo sapiens, UniProt P49682)
Construct: CD8 leader; Flag tag; expressed in transfected cells; membrane preparation
Assay: Human CXCR3 (N-delta 4) scintillation proximity binding assay ([125I] IP-10 displacement)
Conditions: human CXCR3; Table 1; read-out: Ki rating
pKi: −log10 of the molar value.

Some solved entries appear below for comparison.
MOL	READOUT VALUE
CCNc1nnc(-c2ccc(N3C[C@H](CC)N(C4CCN(Cc5ccc(Cl)cc5)CC4)C[C@H]3C)c(C)n2)o1	> 7.60
CC[C@H]1CN(c2ccc(-c3nnc(N)o3)nc2C)CCN1C1CCN(C(=O)c2ccc(F)c(F)c2)CC1	> 7.60
CCNc1nnc(-c2ccc(N3C[C@H](CC)N(C4CCN(C(=O)c5ccc(Cl)c(F)c5)CC4)C[C@H]3C)c(C)n2)o1	7.00 to 7.60

Turning to the following compound.
-- ask Returns the measured pKi for the input compound. Input: "CC[C@H]1CN(c2ccc(-c3nnc(N)o3)nc2C)[C@H](C)CN1C1CCN(C(=O)c2ccc(Cl)cc2)CC1"
-- reply 7.00 to 7.60

###

Target: human CXCR3 (N-delta 4) (Homo sapiens, UniProt P49682)
Construct: CD8 leader; Flag tag; expressed in transfected cells; membrane preparation
Assay: Human CXCR3 (N-delta 4) scintillation proximity binding assay ([125I] IP-10 displacement)
Details: human CXCR3; Table 1; read-out: Ki rating
pKi: −log10 of the molar value.
PROPERTY: pKi

-- ask Quick check: pKi of "CCNc1nnc(-c2ccc(N3C[C@H](CC)N(C4CCN(C(=O)c5ccc(Cl)cc5)CC4)C[C@H]3C)c(C)n2)o1" ?
-- reply 7.00 to 7.60

-- ask Which pKi value belongs to "CCNc1nnc(-c2ccc(N3CCN(C4CCN(C(=O)c5ccc(F)c(F)c5)CC4)[C@@H](CC)C3)c(C)n2)o1" ?
-- reply > 7.60

-- ask What value of measured pKi is listed for "CC[C@H]1CN(c2ccc(-c3nnc[nH]3)nc2C)CCN1C1CCN(C(=O)c2ccc(Cl)c(F)c2)CC1" ?
-- reply > 7.60

-- ask Fill blank: measured pKi of the compound "CC[C@H]1CN(c2ccc(-c3nnc(N)o3)nc2C)CCN1C1CCN(Cc2ccc(Cl)cc2)CC1" is ____.
-- reply > 7.60
